Values compiled from patent US20140154255A1.

target: T1, human VEGF-A residues 27-191 of Accession #AAV38412 (human, UniProt P15692 27-191); assay: BIAcore SPR
T1 construct: range 27-191
T1 sequence (P15692 other isoform, or with tags, fused parts or gaps limits assumed): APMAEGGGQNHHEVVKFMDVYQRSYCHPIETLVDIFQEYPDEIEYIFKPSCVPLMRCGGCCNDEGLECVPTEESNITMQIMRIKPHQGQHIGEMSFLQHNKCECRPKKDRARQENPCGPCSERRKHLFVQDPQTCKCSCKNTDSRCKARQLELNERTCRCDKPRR
Rule: kon below 60000 M⁻¹ s⁻¹ gives Yes. Equal to or above 60000 M⁻¹ s⁻¹ gives No.

Binder	Category
N31 H (anti-VEGF IgG) (antibody, V domains shown, copies: 2 + 2) VH: EVQLVESGGGLVQPGGSLRLSCAASGYTFTHYGMNWVRQAPGKGLEWVGWINTYTGEPTYAADFKRRFTFSLDTSKSTAYLQMNSLRAEDTAVYYCAKYPHYYGSSHWYFDVWGQGTLVTVSS VL: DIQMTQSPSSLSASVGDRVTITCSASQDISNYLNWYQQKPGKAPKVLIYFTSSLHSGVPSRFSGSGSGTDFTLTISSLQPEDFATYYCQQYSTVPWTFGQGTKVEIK	No
T28 R (anti-VEGF IgG) (antibody, V domains shown, copies: 2 + 2) VH: EVQLVESGGGLVQPGGSLRLSCAASGYRFTNYGMNWVRQAPGKGLEWVGWINTYTGEPTYAADFKRRFTFSLDTSKSTAYLQMNSLRAEDTAVYYCAKYPHYYGSSHWYFDVWGQGTLVTVSS VL: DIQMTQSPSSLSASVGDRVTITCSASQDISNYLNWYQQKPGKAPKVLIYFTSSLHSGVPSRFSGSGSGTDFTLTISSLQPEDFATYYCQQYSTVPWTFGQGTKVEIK	No
bevacizumab variant H97Y (IgG format) (antibody, name in Kabat numbering, V domains shown, IgG format; also called H97Y substitution) VH: EVQLVESGGGLVQPGGSLRLSCAASGYTFTNYGMNWVRQAPGKGLEWVGWINTYTGEPTYAADFKRRFTFSLDTSKSTAYLQMNSLRAEDTAVYYCAKYPYYYGSSHWYFDVWGQGTLVTVSS VL: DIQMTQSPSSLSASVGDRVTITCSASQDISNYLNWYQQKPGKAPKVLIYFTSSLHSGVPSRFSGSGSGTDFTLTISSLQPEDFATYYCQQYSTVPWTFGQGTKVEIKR	Yes

# strict comparison: is reported kon < 60000 M⁻¹ s⁻¹? input = T28 G (anti-VEGF IgG) (antibody, V domains shown, copies: 2 + 2) VH: EVQLVESGGGLVQPGGSLRLSCAASGYGFTNYGMNWVRQAPGKGLEWVGWINTYTGEPTYAADFKRRFTFSLDTSKSTAYLQMNSLRAEDTAVYYCAKYPHYYGSSHWYFDVWGQGTLVTVSS VL: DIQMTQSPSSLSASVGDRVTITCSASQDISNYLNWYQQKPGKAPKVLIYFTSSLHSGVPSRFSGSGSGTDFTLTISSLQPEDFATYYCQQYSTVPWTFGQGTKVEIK
No
